Species: Bos taurus
Experiment: Selectivity index, ratio of Ki for MAOA to Ki for MAOB in bovine brain mitochondria

- Compound: "Cc1ccc(C2=NN(C(N)=S)[C@H](c3ccc(Cl)cc3)C2)cc1"
  Ratio Ki: 50
- Compound: "NC(=S)N1N=C(c2ccc(F)cc2)CC1c1ccc(Cl)cc1 (centres undefined)"
  Ratio Ki: 0.006
- Compound: "Cc1ccc(C2=NN(C(N)=S)C(c3ccco3)C2)cc1 (centres undefined)"
  Ratio Ki: 0.02
- Compound: "NC(=S)N1N=C(c2cccs2)CC1c1ccco1 (centres undefined)"
  Ratio Ki: 2.5
- Compound: "Cc1ccc(C2CC(c3cccs3)=NN2C(N)=S)cc1 (centres undefined)"
  Ratio Ki: 5
- Compound: "NC(=S)N1N=C(c2ccc(F)cc2)C[C@@H]1c1ccc(Cl)cc1"
  Ratio Ki: 0.008
- Compound: "Cc1ccc(C2CC(c3ccc(F)cc3)=NN2C(N)=S)cc1 (centres undefined)"
  Ratio Ki: 0.14
- Compound: "NC(=S)N1N=C(c2ccc(F)cc2)CC1c1ccco1 (centres undefined)"
  Ratio Ki: 0.021
- Compound: "Cc1ccc(C2=NN(C(N)=S)C(c3ccc(C)cc3)C2)cc1 (centres undefined)"
  Ratio Ki: 0.6
- Compound: "NC(=S)N1N=C(c2ccc(F)cc2)C[C@H]1c1ccc(Cl)cc1"
  Ratio Ki: 0.002
- Compound: "Cc1ccc(C2=NN(C(N)=S)[C@@H](c3ccc(Cl)cc3)C2)cc1"
  Ratio Ki: 4.8
- Compound: "Cc1ccc(C2=NN(C(N)=S)C(c3ccc(Cl)cc3)C2)cc1 (centres undefined)"
  Ratio Ki: 20.7
- Compound: "NC(=S)N1N=C(c2cccs2)CC1c1ccc(Cl)cc1 (centres undefined)"
  Ratio Ki: 6.8
- Compound: "NC(=S)N1N=C(c2cccs2)CC1c1cccs1 (centres undefined)"
  Ratio Ki: 0.54

###

pKi: −log10 of the molar value.
A short record of pKi observed with Amine oxidase [flavin-containing] B (Bos taurus) follows.
Sequence (P56560 whole entry): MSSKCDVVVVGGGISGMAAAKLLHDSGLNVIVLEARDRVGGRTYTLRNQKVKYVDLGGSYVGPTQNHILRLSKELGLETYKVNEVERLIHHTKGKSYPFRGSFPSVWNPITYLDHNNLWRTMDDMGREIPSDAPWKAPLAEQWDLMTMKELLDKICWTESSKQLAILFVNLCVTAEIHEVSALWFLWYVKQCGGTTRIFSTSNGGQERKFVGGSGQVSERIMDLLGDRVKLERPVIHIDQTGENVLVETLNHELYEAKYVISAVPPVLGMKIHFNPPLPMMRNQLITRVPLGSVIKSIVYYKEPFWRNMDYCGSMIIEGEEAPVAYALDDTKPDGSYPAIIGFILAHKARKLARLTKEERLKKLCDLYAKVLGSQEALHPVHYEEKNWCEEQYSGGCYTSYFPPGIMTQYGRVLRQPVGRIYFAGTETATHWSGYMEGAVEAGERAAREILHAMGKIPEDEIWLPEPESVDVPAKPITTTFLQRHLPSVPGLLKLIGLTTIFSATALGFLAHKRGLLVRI

- Compound: "Cc1ccc(C2=NN(C(N)=S)[C@H](c3ccc(Cl)cc3)C2)cc1"
  pKi: 9.00
- Compound: "Cc1ccc(C2=NN(C(N)=S)C(c3ccc(C)cc3)C2)cc1 (centres undefined)"
  pKi: 8.00
- Compound: "NC(=S)N1N=C(c2cccs2)CC1c1cccs1 (centres undefined)"
  pKi: 7.30
- Compound: "NC(=S)N1N=C(c2ccc(F)cc2)CC1c1ccco1 (centres undefined)"
  pKi: 6.43

###

Organism: Bos taurus
Assay: Selectivity index, ratio of Ki for MAOB to Ki for MAOA in bovine brain mitochondria
// reported Ratio Ki per item

- Molecule: "Cc1ccc(C2=NN(C(N)=S)[C@H](c3ccc(Cl)cc3)C2)cc1"
  Ratio Ki: 0.02
- Molecule: "Cc1ccc(C2=NN(C(N)=S)C(c3ccc(Cl)cc3)C2)cc1 (centres undefined)"
  Ratio Ki: 0.05
- Molecule: "NC(=S)N1N=C(c2cccs2)CC1c1cccs1 (centres undefined)"
  Ratio Ki: 1.85
- Molecule: "NC(=S)N1N=C(c2ccc(F)cc2)C[C@@H]1c1ccc(Cl)cc1"
  Ratio Ki: 116
- Molecule: "Cc1ccc(C2=NN(C(N)=S)C(c3ccco3)C2)cc1 (centres undefined)"
  Ratio Ki: 42.5
- Molecule: "Cc1ccc(C2CC(c3cccs3)=NN2C(N)=S)cc1 (centres undefined)"
  Ratio Ki: 0.2
- Molecule: "NC(=S)N1N=C(c2ccc(F)cc2)CC1c1ccco1 (centres undefined)"
  Ratio Ki: 46.2
- Molecule: "Cc1ccc(C2=NN(C(N)=S)[C@@H](c3ccc(Cl)cc3)C2)cc1"
  Ratio Ki: 0.2
- Molecule: "NC(=S)N1N=C(c2ccc(F)cc2)CC1c1ccc(Cl)cc1 (centres undefined)"
  Ratio Ki: 166
- Molecule: "Cc1ccc(C2CC(c3ccc(F)cc3)=NN2C(N)=S)cc1 (centres undefined)"
  Ratio Ki: 7.1
- Molecule: "NC(=S)N1N=C(c2ccc(F)cc2)C[C@H]1c1ccc(Cl)cc1"
  Ratio Ki: 480
- Molecule: "NC(=S)N1N=C(c2cccs2)CC1c1ccc(Cl)cc1 (centres undefined)"
  Ratio Ki: 0.14
- Molecule: "NC(=S)N1N=C(c2cccs2)CC1c1ccco1 (centres undefined)"
  Ratio Ki: 0.4
- Molecule: "Cc1ccc(C2=NN(C(N)=S)C(c3ccc(C)cc3)C2)cc1 (centres undefined)"
  Ratio Ki: 1.6
